Test: melting temperature; melt of duplexes
Settings: sodium 0.0675 M; strand 1 µM
Would you please tag the item y when its Tm is 50 °C or above, and n when it is below?

Use these answered entries as a reference point.
| substance | qualitative_label |
| --- | --- |
| CGACGTGCGGCATGTGCTG+CAGCACATGGGGCACGTCG ((((((((..(((((((((+)))))))))..)))))))) | y |
| CGACGTGCAACATGTGCTG+CAGCACATCCAGCACGTCG ((((((((...((((((((+))))))))...)))))))) | n |

Check if Tm >= 50 °C (inclusive). Item: CGACGTGCCCTATGTGCTG+CAGCACATGACGCACGTCG ((((((((...((((((((+))))))))...))))))))
n

I'd appreciate it if you could say whether CGACGTGCTGAATGTGCTG+CAGCACATACGGCACGTCG ((((((((.(.((((((((+)))))))).).)))))))) has Tm at least equal to 50 °C.
y

====

Experiment: melting temperature; melt of duplexes
Conditions: sodium 0.0675 M; strand 1 µM
measurement_name: Tm (°C)
Numbers only, in °C.

Example cases with answers are listed next.
| substance | measurement_name | quantity_unit | measurement |
| --- | --- | --- | --- |
| CGACGTGCGTAATGTGCTG+CAGCACATCGAGCACGTCG ((((((((...((((((((+))))))))...)))))))) | Tm | °C | 53.1 |
| CGACGTGCCAGATGTGCTG+CAGCACATGAAGCACGTCG ((((((((...((((((((+))))))))...)))))))) | Tm | °C | 50.5 |
| CGACGTGCCTCATGTGCTG+CAGCACATCAGGCACGTCG ((((((((((.((((((((+)))))))).)))))))))) | Tm | °C | 55 |
| CGACGTGCAAAATGTGCTG+CAGCACATCTCGCACGTCG ((((((((.(.((((((((+)))))))).).)))))))) | Tm | °C | 48.6 |
| CGACGTGCCGCATGTGCTG+CAGCACATGAAGCACGTCG ((((((((..(((((((((+)))))))))..)))))))) | Tm | °C | 53.8 |

The substance listed as CGACGTGCCTTATGTGCTG+CAGCACATTCAGCACGTCG ((((((((...((((((((+))))))))...)))))))) has a reported Tm of 49

====

Assay: melting temperature; melt of duplexes
Details: sodium 0.0675 M; strand 1 µM
Binarize Tm at 50 °C; below is T, at or above is F.

Some entries whose results are on file:
| substance | qualitative_label |
| --- | --- |
| CGACGTGCGAGATGTGCTG+CAGCACATCTTGCACGTCG ((((((((.((((((((((+)))))))))).)))))))) | F |
| CGACGTGCATCATGTGCTG+CAGCACATGTAGCACGTCG ((((((((..(((((((((+)))))))))..)))))))) | F |
| CGACGTGCACGATGTGCTG+CAGCACATGAAGCACGTCG ((((((((...((((((((+))))))))...)))))))) | T |

Consider now this further substance.
I wonder whether CGACGTGCTTAATGTGCTG+CAGCACATGGAGCACGTCG (((((((((..((((((((+))))))))..))))))))) has Tm below 50 °C. Can you tell?
F

====

Experiment: melting temperature; melt of duplexes
Details: sodium 0.0675 M; strand 1 µM
Give measured Tm for each item. Keep answers brief.
Give bare numbers, in °C.

Completed entries (count: 2):
| substance | measurement_name | measurement |
| --- | --- | --- |
| CGACGTGCCTCATGTGCTG+CAGCACATCAAGCACGTCG ((((((((.(.((((((((+)))))))).).)))))))) | Tm | 47.9 |
| CGACGTGCCACATGTGCTG+CAGCACATTCAGCACGTCG ((((((((...((((((((+))))))))...)))))))) | Tm | 48.9 |

Okay, now this substance:
Sure, the documented Tm for CGACGTGCACCATGTGCTG+CAGCACATCGTGCACGTCG ((((((((((.((((((((+)))))))).)))))))))) is 49.6

====

Assay: melting temperature; melt of duplexes
Settings: sodium 0.0675 M; strand 1 µM
Field: Tm. Provide a value for each of the substances that follow.
Answers are plain numbers, in °C.

| substance | Tm / °C |
| --- | --- |
| CGACGTGCGAAATGTGCTG+CAGCACATTTAGCACGTCG ((((((((.((((((((((+)))))))))).)))))))) | 57.9 |
| CGACGTGCGGGATGTGCTG+CAGCACATTATGCACGTCG ((((((((...((((((((+))))))))...)))))))) | 51.8 |
| CGACGTGCTGCATGTGCTG+CAGCACATTCCGCACGTCG ((((((((.(.((((((((+)))))))).).)))))))) | 49.3 |
| CGACGTGCCCTATGTGCTG+CAGCACATAGGGCACGTCG (((((((((((((((((((+))))))))))))))))))) | 64.4 |
| CGACGTGCACGATGTGCTG+CAGCACATGCAGCACGTCG ((((((((...((((((((+))))))))...)))))))) | 45.9 |
| CGACGTGCGGTATGTGCTG+CAGCACATAAGGCACGTCG ((((((((..(((((((((+)))))))))..)))))))) | 53 |
| CGACGTGCCGTATGTGCTG+CAGCACATAGCGCACGTCG ((((((((..(((((((((+)))))))))..)))))))) | 52.7 |
| CGACGTGCGTAATGTGCTG+CAGCACATTGGGCACGTCG ((((((((..(((((((((+)))))))))..)))))))) | 55 |

Give measured Tm for every item shown.
1. CGACGTGCAGCATGTGCTG+CAGCACATGTGGCACGTCG ((((((((..(((((((((+)))))))))..))))))))
2. CGACGTGCAAGATGTGCTG+CAGCACATAGTGCACGTCG (((((((((..((((((((+))))))))..)))))))))

1. 55.5
2. 48.6

For each listed entry, give its Tm.
1. CGACGTGCTCAATGTGCTG+CAGCACATTAAGCACGTCG (((((((((.(((((((((+))))))))).)))))))))
2. CGACGTGCGGCATGTGCTG+CAGCACATGTTGCACGTCG ((((((((..(((((((((+)))))))))..))))))))
3. CGACGTGCAGTATGTGCTG+CAGCACATGTGGCACGTCG ((((((((...((((((((+))))))))...))))))))
4. CGACGTGCAGGATGTGCTG+CAGCACATTCAGCACGTCG ((((((((.(.((((((((+)))))))).).))))))))
5. CGACGTGCCTAATGTGCTG+CAGCACATCGCGCACGTCG ((((((((...((((((((+))))))))...))))))))
6. CGACGTGCATTATGTGCTG+CAGCACATCATGCACGTCG ((((((((((.((((((((+)))))))).))))))))))

1. 54.4
2. 57.6
3. 50.4
4. 54.1
5. 47
6. 54.1

====

Test: melting temperature; melt of duplexes
Settings: sodium 0.0675 M; strand 1 µM
Could you please report measured Tm for the items listed next?
Give bare numbers, in °C.

| substance | Tm [°C] |
| --- | --- |
| CGACGTGCTCCATGTGCTG+CAGCACATCTTGCACGTCG ((((((((...((((((((+))))))))...)))))))) | 47.2 |
| CGACGTGCTGAATGTGCTG+CAGCACATGATGCACGTCG ((((((((...((((((((+))))))))...)))))))) | 55.2 |
| CGACGTGCCCAATGTGCTG+CAGCACATATCGCACGTCG ((((((((...((((((((+))))))))...)))))))) | 47.1 |
| CGACGTGCACAATGTGCTG+CAGCACATCTCGCACGTCG ((((((((...((((((((+))))))))...)))))))) | 45.1 |
| CGACGTGCGACATGTGCTG+CAGCACATCTAGCACGTCG ((((((((.(.((((((((+)))))))).).)))))))) | 51.5 |

For every record below, what is its Tm?
1. CGACGTGCACTATGTGCTG+CAGCACATATTGCACGTCG (((((((((.(((((((((+))))))))).)))))))))
2. CGACGTGCCAAATGTGCTG+CAGCACATGTTGCACGTCG ((((((((.(.((((((((+)))))))).).))))))))

51.5
50.5
